assay: Inhibition of EBV DNA polymerase by T7 quick-coupled transcription-translation system; design: species or system human gammaherpesvirus 4
pIC50: −log10 of the molar value.
Measured Parameter: pIC50

{"columns": ["Compound", "Measured Parameter", "Measurement"],
 "data": [
  ["CN(Cc1cc2c(=O)c(C(=O)NCc3cccc(Cl)c3)cn(C)c2s1)C[C@@H](O)c1ccccn1", "pIC50", 7.15]
]}

###

bioavailability values by entry
experiment: Oral bioavailability in rat at 15 mg/kg; assay type: ADME, organism-based; details: in vivo
Measured Parameter: bioavailability (%)

{"columns": ["Compound", "Value Units", "Measurement"],
 "data": [
  ["CN(Cc1cc2c(=O)c(C(=O)NCc3ccc(Cl)cc3)cn(C)c2s1)C[C@@H](O)c1cnccn1", "%", 21],
  ["CN(Cc1cc2c(=O)c(C(=O)NCc3cccc(Cl)c3)cn(C)c2s1)C[C@@H](O)c1ccccn1", "%", 45]
]}

###

biological target: DNA polymerase catalytic subunit (Human cytomegalovirus (strain AD169) (HHV-5) (Human herpesvirus 5), UniProt P08546); assay: Inhibition of HCMV DNA polymerase by scintillation proximity assay
Sequence (P08546 whole entry): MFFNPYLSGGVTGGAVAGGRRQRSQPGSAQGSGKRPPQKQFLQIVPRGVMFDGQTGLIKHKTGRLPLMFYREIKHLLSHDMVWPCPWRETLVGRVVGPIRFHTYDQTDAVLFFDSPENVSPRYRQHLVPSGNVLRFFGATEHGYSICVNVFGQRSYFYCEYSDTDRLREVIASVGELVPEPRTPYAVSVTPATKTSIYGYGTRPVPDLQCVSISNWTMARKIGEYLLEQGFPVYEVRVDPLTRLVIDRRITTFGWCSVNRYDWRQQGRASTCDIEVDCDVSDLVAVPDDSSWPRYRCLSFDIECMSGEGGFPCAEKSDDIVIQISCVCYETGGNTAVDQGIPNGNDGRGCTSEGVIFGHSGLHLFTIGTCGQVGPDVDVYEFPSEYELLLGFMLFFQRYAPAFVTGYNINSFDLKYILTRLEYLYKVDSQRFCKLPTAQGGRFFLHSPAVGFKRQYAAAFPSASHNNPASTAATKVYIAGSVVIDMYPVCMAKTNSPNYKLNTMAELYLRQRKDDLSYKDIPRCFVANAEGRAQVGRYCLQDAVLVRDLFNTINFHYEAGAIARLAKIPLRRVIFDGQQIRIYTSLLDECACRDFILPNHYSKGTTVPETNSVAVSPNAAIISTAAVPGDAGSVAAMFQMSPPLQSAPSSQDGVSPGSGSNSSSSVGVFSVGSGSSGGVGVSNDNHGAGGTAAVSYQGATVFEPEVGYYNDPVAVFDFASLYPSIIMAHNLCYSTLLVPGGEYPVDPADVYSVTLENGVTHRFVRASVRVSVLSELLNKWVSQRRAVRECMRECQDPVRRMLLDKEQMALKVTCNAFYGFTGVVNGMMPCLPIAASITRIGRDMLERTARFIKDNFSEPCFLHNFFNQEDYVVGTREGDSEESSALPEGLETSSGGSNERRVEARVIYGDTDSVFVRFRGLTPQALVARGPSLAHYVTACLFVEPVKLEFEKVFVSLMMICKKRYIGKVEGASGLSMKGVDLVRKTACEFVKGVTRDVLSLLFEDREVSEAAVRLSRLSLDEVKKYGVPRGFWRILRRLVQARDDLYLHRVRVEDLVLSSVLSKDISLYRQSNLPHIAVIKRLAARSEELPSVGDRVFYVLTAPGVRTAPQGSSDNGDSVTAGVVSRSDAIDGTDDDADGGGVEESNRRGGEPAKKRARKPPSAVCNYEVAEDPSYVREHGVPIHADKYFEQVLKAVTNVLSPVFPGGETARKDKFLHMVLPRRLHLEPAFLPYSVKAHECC
pIC50: −log10 of the molar value.
pIC50 values by entry

{"columns": ["Compound", "pIC50"],
 "data": [
  ["CN(Cc1cc2c(=O)c(C(=O)NCc3ccc(Cl)cc3)cn(C)c2s1)CC(O)c1ccccc1 (stereo not given)", 7.00],
  ["CC(O)CN(C)Cc1cc2c(=O)c(C(=O)NCc3ccc(Cl)cc3)cn(C)c2s1 (stereo not given)", 5.45],
  ["CN(Cc1cc2c(=O)c(C(=O)NCc3cccc(Cl)c3)cn(C)c2s1)CC(O)c1ccc(F)cc1 (stereo not given)", 6.69],
  ["CN(Cc1cc2c(=O)c(C(=O)NCc3ccc(F)cc3)cn(C)c2s1)CC(O)c1ccc(F)cc1 (stereo not given)", 6.66],
  ["Cn1cc(C(=O)NCc2ccc(Cl)cc2)c(=O)c2cc(CN(CCO)CC(O)c3ccccc3)sc21 (stereo not given)", 5.80],
  ["CN(Cc1cc2c(=O)c(C(=O)NCc3cccc(Cl)c3)cn(C)c2s1)CC(O)c1ccccn1 (stereo not given)", 7.07],
  ["CN(Cc1cc2c(=O)c(C(=O)NCc3ccc(Cl)cc3)cn(C)c2s1)CC(O)c1ccc(O)cc1 (stereo not given)", 7.00],
  ["CCN(Cc1cc2c(=O)c(C(=O)NCc3ccc(Cl)cc3)cn(C)c2s1)CC(O)c1ccccc1 (stereo not given)", 6.62],
  ["C[C@H](O)CN(C)Cc1cc2c(=O)c(C(=O)NCc3ccc(Cl)cc3)cn(C)c2s1", 7.46],
  ["CN(Cc1cc2c(=O)c(C(=O)NCc3ccc(Cl)cc3)cn(C)c2s1)CC(O)c1ncccn1 (stereo not given)", 7.00],
  ["CN(Cc1cc2c(=O)c(C(=O)NCc3cccc(Cl)c3)cn(C)c2s1)C[C@@H](O)c1ccccn1", 7.21],
  ["COc1cccc(C(O)CN(C)Cc2cc3c(=O)c(C(=O)NCc4ccc(Cl)cc4)cn(C)c3s2)c1 (stereo not given)", 7.06],
  ["CC(C)N(Cc1cc2c(=O)c(C(=O)NCc3ccc(Cl)cc3)cn(C)c2s1)CC(O)c1ccccc1 (stereo not given)", 5.69],
  ["CN(Cc1cc2c(=O)c(C(=O)NCc3ccc(Cl)cc3)cn(C)c2s1)CC(O)c1ccc(C#N)cc1 (stereo not given)", 6.50],
  ["CN(Cc1cc2c(=O)c(C(=O)NCc3ccc(Cl)cc3)cn(C)c2s1)C[C@@H](O)c1cnccn1", 7.43],
  ["Cn1cc(C(=O)NCc2ccc(Cl)cc2)c(=O)c2cc(CN(CC(O)c3ccccc3)C3CC3)sc21 (stereo not given)", 5.05],
  ["CN(Cc1cc2c(=O)c(C(=O)NCc3ccc(Cl)cc3)cn(C)c2s1)CC(O)c1cnccn1 (stereo not given)", 7.07],
  ["CN(Cc1cc2c(=O)c(C(=O)NCc3ccc(Cl)cc3)cn(C)c2s1)CC(O)c1cccc(C#N)c1 (stereo not given)", 7.18],
  ["CN(Cc1cc2c(=O)c(C(=O)NCc3ccc(Cl)cc3)cn(C)c2s1)C[C@H](O)c1ccccc1", 5.59],
  ["CN(Cc1cc2c(=O)c(C(=O)NCc3ccc(Cl)cc3)cn(C)c2s1)CC(O)c1cccs1 (stereo not given)", 6.76]
]}
